Assay: JC-1 mitochondrial signal, unstimulated HepG2 cells – cell-based, JC-1 fluorescence, 24 h, 100 nL compound, profiling panel (AID 1167); further: test concentration not given here
Details: HepG2 mitochondrial potential, higher = more signal
Reported z-score values for a set of compounds
propertyName: z-score

compound: [N-]=[N+]=Nc1ccccc1[C@@H]1OC(c2ccc(OCCCO)cc2)=N[C@]1(Cc1ccccc1)C(=O)O
numericReadout: -1.24

compound: CCCC=C(CCC)[C@@H](NC(=O)c1cccs1)c1ccc(C(=O)OC)cc1
numericReadout: -0.115

compound: CCCC#C[Si](O[C@H](CC)c1cn([C@H](C)c2ccccc2)nn1)(C(C)C)C(C)C
numericReadout: 0.621

compound: C=CCNC(=O)[C@@H]1[C@H]2C(=O)O[C@H](c3ccccc3)[C@H](c3ccccc3)N2[C@H](c2ccc(O)cc2)[C@@]12C(=O)N(C(=O)OCCOC)c1ccc(C#CC3=CCCCC3)cc12
numericReadout: -1.9

compound: COc1cc(NN2C(C(O)c3ccc(N(C)C)cc3)C=CC3C(=O)N(c4ccccc4)C(=O)C32)cc(OC)c1OC (stereo not given)
numericReadout: -0.112

compound: COc1ccc(C#Cc2ccc3c(c2)[C@]2(C(=O)N3)[C@H](c3ccc(O)cc3)N3[C@H](c4ccccc4)[C@H](c4ccccc4)OC(=O)[C@H]3[C@@H]2C(=O)Nc2nc3ccccc3s2)cc1
numericReadout: -2.28

compound: [N-]=[N+]=Nc1ccccc1C[C@]1(C(=O)O)COC(c2ccc(OCCCO)cc2)=N1
numericReadout: -0.253

compound: Cc1ccc(S[C@]2(C(=O)NCCN3CCOCC3)CC(=O)N(Cc3ccccc3Cl)[C@@H]2c2ccc(CO)cc2I)cc1
numericReadout: 1.53

compound: Oc1ccc2cc[n+](Cc3cc4c(cc3Br)OCO4)cc2c1
numericReadout: -1.12

compound: C=CCNC(=O)[C@@H]1[C@H]2C(=O)O[C@H](c3ccccc3)[C@H](c3ccccc3)N2[C@H](c2ccccc2OCCO)[C@@]12C(=O)Nc1ccc(C#CCCO)cc12
numericReadout: -0.699

compound: O=C1N(Cc2ccccc2)c2ccccc2C[C@]12N=C(c1ccc(OCCCO)cc1)O[C@@H]2c1ccccc1
numericReadout: -1.05

compound: CCOC(=O)C1=CC[C@@H](c2ccccc2F)N(S(=O)(=O)c2ccc(C)cc2)[C@H]1c1ccccc1
numericReadout: 2.25

compound: CC(C)N1C(=O)C[C@@](C(=O)NC2CC2)(c2ccc([N+](=O)[O-])cc2)[C@H]1c1ccc(CO)cc1
numericReadout: 0.347

compound: CCOC(=O)C[C@H]1[C@H](OC(=O)Cc2ccc3c(c2)OCO3)[C@@H](NC(=O)c2ccc3ccccc3n2)c2cc(OCCCO)ccc2N1C(=O)c1ccc2ccccc2n1
numericReadout: 2.81

compound: C#CCN(Cc1ccccc1Br)[C@H](/C=C/c1ccccc1)[C@@H](O)Cc1ccccc1
numericReadout: -2.68
